Molecular target: Pituitary adenylate cyclase-activating polypeptide (Rattus norvegicus, UniProt P13589)
READOUT_KIND: Ki (nM)

[[record]]
substance = "H-SYSRYRKQMAVKKYLAAVL-NH2 [PACAP(9-27)]"
units_text = "nM"
experimental_value = 2000

[[record]]
substance = "H-FTDSYSRYRKQMAVKKYLAAVLGKRYKQRV-NH2 [PACAP(6-35)]"
units_text = "nM"
experimental_value = 300

[[record]]
substance = "H-TDSYSRYRKQMAVKKYLAAVL-NH2 [PACAP(6-27)]"
units_text = "nM"
experimental_value = 3000

[[record]]
substance = "H-DSYSRYRKQMAVKKYLAAVLGKRYKQRVKNK-NH2 [PACAP(8-38)]"
units_text = "nM"
experimental_value = 30

[[record]]
substance = "H-SYSRYRKQMAVKKYLAAVLGKRYKQRVKNK-NH2 [PACAP(9-38)]"
units_text = "nM"
experimental_value = 30

[[record]]
substance = "H-SRYRKQMAVKKYLAAVL-NH2 [PACAP(11-27)]"
units_text = "nM"
experimental_value = 6000

[[record]]
substance = "H-SRYRKQMAVKKYLAAVLGKRYKQRVKNK-NH2 [PACAP(11-38)]"
units_text = "nM"
experimental_value = 100


[P] H-FTDSYSRYRKQMAVKKYLAAVL-NH2 [PACAP(5-27)]
[Q] H-YSRYRKQMAVKKYLAAVLGKRYKQRVKNK-NH2 [PACAP(10-38)]
[R] H-TDSYSRYRKQMAVKKYLAAVLGKRYKQRVKNK-NH2 [PACAP(7-38)]
Please rank these substances by Ki in descending order. In your reply, arrange the labels in the requested order.
P, Q, R
(P: 1000 nM, Q: 90 nM, R: 10 nM)
